Reported viability at 8 h, 500 ng/well by item:
test: MTT viability assay after treatment with Fluc mRNA/amino lipidated peptoid formulations; assay type: cell-based; conditions: human, HeLa cells, Relative Viability (%) 2% PEG

Chemical string: CCCCCCCCCCN(CC(N)=O)C(=O)CN(CCCCCCCCCC)C(=O)CN(CCCCCCCCCC)C(=O)CN(CCCCCCCCCC)C(=O)CN(CCc1ccccc1)C(=O)CN(CCc1ccccc1)C(=O)CN(CCCN)C(=O)CN(CCc1ccccc1)C(=O)CN(CCc1ccccc1)C(=O)CN(CCCN)C(=O)CN(CCc1ccccc1)C(=O)CN(CCc1ccccc1)C(=O)CN(CCCN)C(=O)CN(CCc1ccccc1)C(=O)CN(CCc1ccccc1)C(=O)CNCCCN
Measurement unit: %
viability at 8 h, 500 ng/well: 94
//
Chemical string: CCCCCCCCCCCCN(CC(N)=O)C(=O)CN(CCCCCCCCCCCC)C(=O)CN(CCc1ccc(OC)cc1)C(=O)CN(CCc1ccc(OC)cc1)C(=O)CN(CCN)C(=O)CN(CCc1ccc(OC)cc1)C(=O)CN(CCc1ccc(OC)cc1)C(=O)CN(CCN)C(=O)CN(CCc1ccc(OC)cc1)C(=O)CN(CCc1ccc(OC)cc1)C(=O)CNCCN
Measurement unit: %
viability at 8 h, 500 ng/well: 89.7

* * *

test: mRNA encapsulation by fluorescence of Qubit RNA HS dye before and after lysis with Triton X-100; format: physicochemical; settings: percentage of mRNA encapsulation; Fluc mRNA/peptoid formulation, 5:1 mass ratio
Measurement kind: % Encapsulation (%)

Compound: CCCCCCCCCCN(CC(N)=O)C(=O)CN(CCCCCCCCCC)C(=O)CN(CCN)C(=O)CN(CCN)C(=O)CN(CCN)C(=O)CN(CCN)C(=O)CNCCN [Compound 15]
Measured result: 76.9

Compound: CCCCCCCCCCN(CC(N)=O)C(=O)CN(CCCCCCCCCC)C(=O)CN(CCc1ccccc1)C(=O)CN(CCc1ccccc1)C(=O)CN(CCN)C(=O)CN(CCc1ccccc1)C(=O)CN(CCc1ccccc1)C(=O)CN(CCN)C(=O)CN(CCc1ccccc1)C(=O)CN(CCc1ccccc1)C(=O)CN(CCN)C(=O)CN(CCc1ccccc1)C(=O)CN(CCc1ccccc1)C(=O)CNCCN [Compound 11]
Measured result: 87.8

Compound: CCCCCCCCCCN(CC(N)=O)C(=O)CN(CCCCCCCCCC)C(=O)CN(CCc1ccccc1)C(=O)CN(CCN)C(=O)CN(CCc1ccccc1)C(=O)CN(CCN)C(=O)CN(CCc1ccccc1)C(=O)CNCCN [Compound 13]
Measured result: 90.4

Compound: CCCCCCCCCCN(CC(=O)N(CCN)CC(=O)N(CCc1ccccc1)CC(=O)N(CCc1ccccc1)CC(=O)N(CCCCCCCCCC)CC(=O)N(CCN)CC(=O)N(CCc1ccccc1)CC(=O)N(CCc1ccccc1)CC(N)=O)C(=O)CN(CCc1ccccc1)C(=O)CN(CCc1ccccc1)C(=O)CNCCN [Compound 17]
Measured result: 90.3

Compound: CCCCCCCCCCN(CC(N)=O)C(=O)CN(CCCCCCCCCC)C(=O)CN(CCCCCCCCCC)C(=O)CN(CCCCCCCCCC)C(=O)CN(CCc1ccccc1)C(=O)CN(CCc1ccccc1)C(=O)CN(CCCN)C(=O)CN(CCc1ccccc1)C(=O)CN(CCc1ccccc1)C(=O)CN(CCCN)C(=O)CN(CCc1ccccc1)C(=O)CN(CCc1ccccc1)C(=O)CNCCCN [Compound 28]
Measured result: 52.0

Compound: CCCCCCCCCCCCCCCCCCN(CC(N)=O)C(=O)CN(CCCCCCCCCCCCCCCCCC)C(=O)CN(CCc1ccccc1)C(=O)CN(CCc1ccccc1)C(=O)CN(CCN)C(=O)CN(CCc1ccccc1)C(=O)CN(CCc1ccccc1)C(=O)CN(CCN)C(=O)CN(CCc1ccccc1)C(=O)CN(CCc1ccccc1)C(=O)CNCCN [Compound 5]
Measured result: 88.3

Compound: CCCCCCCCCCN(CC(N)=O)C(=O)CN(CCCCCCCCCC)C(=O)CN(CCCCCCCCCC)C(=O)CN(CCc1ccccc1)C(=O)CN(CCc1ccccc1)C(=O)CN(CCN)C(=O)CN(CCc1ccccc1)C(=O)CN(CCc1ccccc1)C(=O)CN(CCN)C(=O)CN(CCc1ccccc1)C(=O)CN(CCc1ccccc1)C(=O)CNCCN [Compound 7]
Measured result: 88.4
